test system: SK-MEL-28; experiment: NCI tumour cell line growth inhibition, 48 h
Activity calls are given as the source filed them. Rule as the data show it: active = GI50 up to about 1.1 µM and inactive = higher. Starred links: 1 amine or outer side, 2 acyl side, 3 side chain; linkers in the order of their positions; H or OH if unused. Non-standard residues stand in square brackets, D forms with d. Residues, ends and D or L forms follow the SMILES beside them. *: point of attachment. X47 = CCC(=O)CC1CC(C)CC(C(=O)[*:2])N1[*:1]; X46 = CCCCCCCCC(C)C(=O)*; Aib = CC(C)(N)C(=O)O; X48 = CC(CN(C)CCO)N*
Outcomes: yes (1) for active, no (0) for inactive

Compound	Tested System	Discrete Label
COc1cc(C2C3=C(N=C4SC(C(C)=O)=C(C)N42)c2ccccc2CC3)cc(OC)c1OC (configuration not stated)	SK-MEL-28	no (0)
c1ccc(SC(Sc2ccccc2)c2ccc3c(c2)OCO3)cc1	SK-MEL-28	no (0)
C/C(=N\n1c(Cc2ccccc2)n[nH]c1=O)c1ccccc1	SK-MEL-28	no (0)
C/C(=N/NC(=S)Nc1ccc([N+](=O)[O-])cc1)c1cccc(/C(C)=N\NC(=S)Nc2ccc([N+](=O)[O-])cc2)n1	SK-MEL-28	no (0)
O=C1c2ccccc2-n2nnnc2C2CSCN12 (configuration not stated)	SK-MEL-28	no (0)
CCN(CC)CCCNc1ncc(C)c2c1c1ccc3c(O)cccc3c1n2C	SK-MEL-28	no (0)
CN1Cc2cc3c(cc2-c2ccccc21)OCO3	SK-MEL-28	no (0)
O=C1CC2(CCC(O)(c3cccc4ccccc34)C(C(=O)c3cccc4ccccc34)C2)C(=O)c2ccccc2N1 (configuration not stated)	SK-MEL-28	no (0)
CCCCCCCCC(C)C(=O)N1CCCC1C(=O)N1C(CC(=O)CC)CC(C)CC1C(=O)NC(C)C(=O)NC(C)(C)C(=O)NC(C)(C)C(=O)NC(C(=O)NC(C)C(=O)NC(C)(C)C(=O)NC(C)(C)C(=O)NC(C)CN(C)CCO)C(C)CC (configuration not stated) (X46-P[X47]A[Aib][Aib]IA[Aib][Aib]-X48; configuration not given here)	SK-MEL-28	no (0)
COc1ccc(N2C(=O)C(Cl)C2c2cc3cc(Br)ccc3nc2Cl)cc1 (configuration not stated)	SK-MEL-28	no (0)
N#CC(C#N)=Cc1ccc(Oc2ccccc2)cc1	SK-MEL-28	no (0)
COC(=O)N/N=C/C(=C/Nc1ccccc1)[N+](=O)[O-]	SK-MEL-28	no (0)
O=C(CCOS(=O)(=O)CF)N1CCN(C(=O)CCOS(=O)(=O)CF)CC1	SK-MEL-28	no (0)
C/C=C(/C)C(=O)OC1CC(C)[C@H]2CC(=O)C(C)=C2CC1C(C)(C)OC(C)=O (some centres not stated)	SK-MEL-28	no (0)
O=C1c2ccccc2C(O)(C(=O)O)C1(O)CC=C(Cl)Cl (configuration not stated)	SK-MEL-28	no (0)
C=C(C)C1CCC(C(=O)O)CC1 (configuration not stated)	SK-MEL-28	no (0)
CC(=O)Oc1cc(/C=C/c2ccc(O)cc2)cc(OC(C)=O)c1	SK-MEL-28	no (0)
C=CC1=C(C)c2cc3[nH]c(c4c5nc(cc6[nH]c(cc1n2)c(C)c6CC)C=C5C(=O)C4C(=O)OC)C(CCC(=O)OC/C=C(\C)CCCC(C)CCCC(C)CCCC(C)C)C3C.C=CC1=C(C)c2cc3[nH]c(c4c5nc(cc6[nH]c(cc1n2)c(C=O)c6CC)C=C5C(=O)C4C(=O)OC)C(CCC(=O)OC/C=C(\C)CCCC(C)CCCC(C)CCCC(C)C)C3C (configuration not stated)	SK-MEL-28	no (0)
Cc1cc(C)n(-c2nc3ccccc3c(=O)n2-c2ccccc2)n1	SK-MEL-28	no (0)
CCOC(=O)C1(C#N)C(c2ccccc2)CC(O)(c2ccc(Cl)cc2)C(C(=O)c2ccc(Cl)cc2)C1c1ccccc1 (configuration not stated)	SK-MEL-28	no (0)
O=C1Nc2ccccc2C(=O)/C1=C/NC(=S)NCCc1ccccc1	SK-MEL-28	no (0)
O=c1cc(-c2ccccc2F)[nH]c2ccc(N3CCCC3)cc12	SK-MEL-28	yes (1)
CCOC(=O)c1c(-c2ccc(OC)cc2)c(C#N)c(=S)n(C2OC(COC(C)=O)C(OC(C)=O)C(OC(C)=O)C2OC(C)=O)c1C (configuration not stated)	SK-MEL-28	no (0)
COc1ccc(N(c2ccc(C#N)cc2)c2ccc(C#N)cc2)cc1	SK-MEL-28	no (0)
Oc1cn(-c2ccc(Cl)cc2)nc1-c1nnc(-c2ccccc2)o1	SK-MEL-28	no (0)
O=C(Cc1ccccc1)Nc1nc2ccc(Cl)cc2c2nc(-c3ccco3)nn12	SK-MEL-28	no (0)
Cc1ccc(S(=O)(=O)NC(=O)NC(CCC(N)=O)C(=O)O)cc1 (configuration not stated)	SK-MEL-28	no (0)
COc1cc(OC2OC(CO)C(O)C(O)C2O)c2c(O)c3c(=O)cc(C)oc3cc2c1 (configuration not stated)	SK-MEL-28	no (0)
Cc1ccnn1CCc1ccc(Cl)cc1Cl	SK-MEL-28	no (0)
O=C(Nc1ccc(S(=O)(=O)Nc2ncccn2)cc1)c1c2ccccc2nc2ccccc12	SK-MEL-28	no (0)
CC(=O)NNc1nc(C)c(C(/C=C/c2ccc(Cl)cc2)=N\NS(=O)(=O)c2ccc(C)cc2)s1	SK-MEL-28	no (0)
Cc1cc2nc3c(C#N)c4c(c(Nc5ccc(Cl)cc5)n3c2cc1C)CCC4	SK-MEL-28	no (0)
Cc1ccc(Oc2ccc(C(=O)c3cccc(C(=O)c4ccc(Oc5ccc(C)cc5)cc4)n3)cc2)cc1	SK-MEL-28	no (0)
CN(C)N1C(=O)S/C(=C\c2ccc([N+](=O)[O-])cc2)C1=O	SK-MEL-28	no (0)
N#Cc1c(-c2ccc([N+](=O)[O-])cc2)c(C#N)c(=O)n(NS(=O)(=O)c2ccccc2)c1O	SK-MEL-28	no (0)
CCCN(CCCCC(NC(C)=O)C(=O)NCc1ccccc1)C(=O)N(C)N=O (configuration not stated)	SK-MEL-28	no (0)
CC(=NNC(=S)Nc1ccccc1C)c1cccc(C(C)=NNC(=S)Nc2ccccc2C)n1	SK-MEL-28	no (0)
